This collection of values is drawn from patent US5773001.

- TEST SYSTEM: CD33 antigen (human) (UniProt P20138)
- METHOD NOTES: competition with 125I-labelled native antibody on HEL 92.1.7 cells; IC50 (reference) / IC50 (sample)
PARAMETER: Rel. Affinity
Format: numeric value only, no unit, no commentary.

Q. Record request: Rel. Affinity value, item Conjugate of 4-formyl-3-methoxyphenoxyacetic acid (3) condensed with Calicheamicin N-acetyl gamma dimethyl hydrazide and h-P67.6 (antibody, V domains shown, drug-linker amide on lysine side chains, sites not stated; drug-linker amide on lysine side chains, sites not stated) VH: EVQLVQSGAEVKKPGSSVKVSCKASGYTITDSNIHWVRQAPGQSLEWIGYIYPYNGGTDYNQKFKNRATLTVDNPTNTAYMELSSLRSEDTDFYYCVNGNPWLAYWGQGTLVTVSS VL: DIQLTQSPSTLSASVGDRVTITCRASESLDNYGIRFLTWFQQKPGKAPKLLMYAASNQGSGVPSRFSGSGSGTEFTLTISSLQPDDFATYYCQQTKEVPWSFGQGTKVEVKR
A. 0.81

Q. // repeat for Conjugate of 4-(4-acetyl-3-fluorophenoxy)butanoic acid (30) condensed with Calicheamicin N-acetyl gamma dimethyl hydrazide and h-P67.6 (antibody, V domains shown, drug-linker amide on lysine side chains, sites not stated; drug-linker amide on lysine side chains, sites not stated) VH: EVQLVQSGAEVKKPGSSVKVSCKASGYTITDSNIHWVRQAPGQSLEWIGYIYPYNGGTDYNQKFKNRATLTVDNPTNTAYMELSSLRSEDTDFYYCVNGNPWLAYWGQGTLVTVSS VL: DIQLTQSPSTLSASVGDRVTITCRASESLDNYGIRFLTWFQQKPGKAPKLLMYAASNQGSGVPSRFSGSGSGTEFTLTISSLQPDDFATYYCQQTKEVPWSFGQGTKVEVKR and report
A. 1.01

Q. What about Conjugate of 4-(2-chloro-4-formylphenoxy)butanoic acid (25) condensed with Calicheamicin N-acetyl gamma dimethyl hydrazide and h-P67.6 (antibody, V domains shown, drug-linker amide on lysine side chains, sites not stated; drug-linker amide on lysine side chains, sites not stated) VH: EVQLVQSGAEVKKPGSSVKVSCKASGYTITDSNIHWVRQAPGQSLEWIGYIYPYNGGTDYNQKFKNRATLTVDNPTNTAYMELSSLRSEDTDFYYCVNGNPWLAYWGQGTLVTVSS VL: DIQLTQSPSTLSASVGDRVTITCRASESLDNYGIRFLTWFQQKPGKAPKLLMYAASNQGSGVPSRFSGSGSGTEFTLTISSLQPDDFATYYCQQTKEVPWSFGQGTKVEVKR ?
A. 0.31

Q. And Conjugate of 4-(4-formyl-2-nitrophenoxy)butanoic acid (27) condensed with Calicheamicin N-acetyl gamma dimethyl hydrazide and h-P67.6 (antibody, V domains shown, drug-linker amide on lysine side chains, sites not stated; drug-linker amide on lysine side chains, sites not stated) VH: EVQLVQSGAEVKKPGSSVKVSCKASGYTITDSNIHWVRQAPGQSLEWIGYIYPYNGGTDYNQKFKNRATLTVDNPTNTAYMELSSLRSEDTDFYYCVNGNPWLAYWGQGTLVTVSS VL: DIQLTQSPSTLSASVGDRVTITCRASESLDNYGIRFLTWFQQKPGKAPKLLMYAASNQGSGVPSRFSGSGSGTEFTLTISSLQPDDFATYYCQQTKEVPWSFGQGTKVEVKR ?
A. 1.3

Q. Could you do the same for Conjugate of 4-formylbenzenepropanoic acid (12) condensed with Calicheamicin N-acetyl gamma dimethyl hydrazide and h-P67.6 (antibody, V domains shown, drug-linker amide on lysine side chains, sites not stated; drug-linker amide on lysine side chains, sites not stated) VH: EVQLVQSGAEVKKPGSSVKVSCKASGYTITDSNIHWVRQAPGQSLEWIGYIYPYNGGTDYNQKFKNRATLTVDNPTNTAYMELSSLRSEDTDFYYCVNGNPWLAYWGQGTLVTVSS VL: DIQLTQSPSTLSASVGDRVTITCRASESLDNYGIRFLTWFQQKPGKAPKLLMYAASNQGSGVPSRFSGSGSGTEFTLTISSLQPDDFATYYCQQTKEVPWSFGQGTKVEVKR , please?
A. 0.73

Q. Same question for Conjugate of 4-(4-acetylphenoxy)butanoic acid (7) condensed with calicheamicin gamma dimethyl hydrazide and h-P67.6 (antibody, V domains shown, drug-linker amide on lysine side chains, sites not stated; drug-linker amide on lysine side chains, sites not stated) VH: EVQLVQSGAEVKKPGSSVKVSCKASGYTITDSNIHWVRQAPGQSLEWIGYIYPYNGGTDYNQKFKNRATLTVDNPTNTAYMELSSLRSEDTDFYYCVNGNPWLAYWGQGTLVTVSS VL: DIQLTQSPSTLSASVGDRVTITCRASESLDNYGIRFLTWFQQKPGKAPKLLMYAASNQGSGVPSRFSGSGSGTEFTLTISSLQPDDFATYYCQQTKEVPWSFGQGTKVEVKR please.
A. 0.78

Q. Entry Conjugate of 4-(4-acetylphenyl)-1-piperazinepentanoic acid (22) condensed with Calicheamicin N-acetyl gamma dimethyl hydrazide and h-P67.6 (antibody, V domains shown, drug-linker amide on lysine side chains, sites not stated; drug-linker amide on lysine side chains, sites not stated) VH: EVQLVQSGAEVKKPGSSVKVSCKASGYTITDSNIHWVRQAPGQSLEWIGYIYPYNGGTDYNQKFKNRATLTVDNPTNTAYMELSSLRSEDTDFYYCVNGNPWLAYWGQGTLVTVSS VL: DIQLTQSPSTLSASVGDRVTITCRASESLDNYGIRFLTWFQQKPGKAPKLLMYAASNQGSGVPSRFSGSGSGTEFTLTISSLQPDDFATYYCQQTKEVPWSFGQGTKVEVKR please
A. 0.98

Q. # iterate: Conjugate of 4-(2-acetyl-1-naphthalenyl)oxy! butanoic acid (20) condensed with Calicheamicin N-acetyl gamma dimethyl hydrazide and h-P67.6 (antibody, V domains shown, drug-linker amide on lysine side chains, sites not stated; drug-linker amide on lysine side chains, sites not stated) VH: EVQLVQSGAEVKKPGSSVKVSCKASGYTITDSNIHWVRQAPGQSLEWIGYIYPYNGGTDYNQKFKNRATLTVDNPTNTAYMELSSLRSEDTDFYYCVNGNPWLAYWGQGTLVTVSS VL: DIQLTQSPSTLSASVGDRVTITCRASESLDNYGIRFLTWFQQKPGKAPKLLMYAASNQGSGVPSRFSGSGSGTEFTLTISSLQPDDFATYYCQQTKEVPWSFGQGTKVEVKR
A. 0.5

Q. // query: Conjugate of 4-(2-oxoethoxy)benzenepropanoic acid (5) condensed with Calicheamicin N-acetyl gamma dimethyl hydrazide and h-P67.6 (antibody, V domains shown, drug-linker amide on lysine side chains, sites not stated; drug-linker amide on lysine side chains, sites not stated) VH: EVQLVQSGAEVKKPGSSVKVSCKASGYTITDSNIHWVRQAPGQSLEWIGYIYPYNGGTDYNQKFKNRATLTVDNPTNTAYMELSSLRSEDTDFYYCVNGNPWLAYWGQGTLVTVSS VL: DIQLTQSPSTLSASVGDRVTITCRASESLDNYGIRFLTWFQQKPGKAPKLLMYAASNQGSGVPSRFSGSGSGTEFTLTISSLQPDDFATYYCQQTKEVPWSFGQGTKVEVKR
A. 1.09

Q. And then Conjugate of 4-formylbenzoic acid (2) condensed with Calicheamicin N-acetyl gamma dimethyl hydrazide and h-P67.6 (antibody, V domains shown, drug-linker amide on lysine side chains, sites not stated; drug-linker amide on lysine side chains, sites not stated) VH: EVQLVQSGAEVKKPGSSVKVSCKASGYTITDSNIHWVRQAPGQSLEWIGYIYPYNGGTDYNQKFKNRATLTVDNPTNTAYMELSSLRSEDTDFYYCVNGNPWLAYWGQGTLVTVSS VL: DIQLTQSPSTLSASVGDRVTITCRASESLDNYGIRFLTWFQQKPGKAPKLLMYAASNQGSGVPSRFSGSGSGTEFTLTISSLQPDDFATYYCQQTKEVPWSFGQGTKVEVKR , what is it?
A. 0.99
